B1: NF2 (merlin) isoform 7, human, full length (507 aa, lacks exons 2-3 = isoform-1 residues 39-121; exon-16 C-terminus), P35240-4 (parent)
chain: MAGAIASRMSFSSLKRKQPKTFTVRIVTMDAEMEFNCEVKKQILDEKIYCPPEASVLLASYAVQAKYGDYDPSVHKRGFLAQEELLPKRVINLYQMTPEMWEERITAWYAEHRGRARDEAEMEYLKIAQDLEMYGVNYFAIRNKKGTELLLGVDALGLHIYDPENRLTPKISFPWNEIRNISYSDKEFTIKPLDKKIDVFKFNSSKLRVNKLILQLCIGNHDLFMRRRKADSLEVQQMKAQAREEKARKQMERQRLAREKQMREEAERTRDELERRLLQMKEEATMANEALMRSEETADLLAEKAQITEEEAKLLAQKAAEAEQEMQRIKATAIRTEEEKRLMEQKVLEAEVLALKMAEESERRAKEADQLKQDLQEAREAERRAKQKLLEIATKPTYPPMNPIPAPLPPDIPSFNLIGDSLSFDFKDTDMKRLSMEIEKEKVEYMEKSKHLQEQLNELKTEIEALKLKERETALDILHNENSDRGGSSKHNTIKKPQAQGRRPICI

variants of: B1; experiment: reverse yeast two-hybrid deep mutational scan (rY2H-seq): NF2 isoform 7 mutant library as bait mated with wild-type prey strains; selection on medium lacking adenine for non-interacting pairs; NextSeq paired-end sequencing; enrichment vs …; details: with KDM1A (lysine-specific histone demethylase 1A; the table's label AOF2 is a gene synonym of KDM1A), O60341; yeast diploids after mating (RBait_S3 x RPrey_S3), 30 °C, selection for reporter genes on NB agar; human ABL2 co-expressed as the kinase-dead K35M mutant …; HIGHER = WEAKER BINDING (the opposite of display enrichments): higher = stronger loss of interaction: reverse Y2H selects yeast in which bait and prey do NOT interact (growth without adenine), so a …; hits-only table; scale: rY2H score; numbering: uniprot, sequence starts at 1
measurementLabel: enrichment

> print(dat)
   mutationkey  measurementlabel   val
1        E311L        enrichment  2.66
2        H112A        enrichment  2.37
3        D162L        enrichment  2.41
4        M238I        enrichment  2.35
5        Q324Y        enrichment  1.47
6        T168P        enrichment  1.77
7        E259T        enrichment  38.4
8        Q500L        enrichment  19.6

[I] E164L
[II] Q498L
[III] K313L
### Prompt Returns the items ordered by enrichment, from maximum to minimum. Answer by writing out the labels in the requested order.
### Response I, III, II

[a] L151R
[b] E362L
[c] M357D
[d] E123L
[e] K304W
### Prompt Arrange items by their enrichment values in increasing order. Answer by writing out the labels in the requested order.
### Response d, b, a, c, e
(d: 1.42, b: 2.21, a: 3.69, c: 7.23, e: 17)
